# System: Clone20 osteoblast Shn3 3'UTR firefly luciferase, 24 h
# experiment summary: Shn3 3'UTR reporter inhibitors, dose response, cell-based, Clone20 osteoblasts, luminescence, dry powder, set 2 (AID 743417)
Results filed as inconclusive are left out.
observed property: AC50

stdin: API: value(readout= AC50, system= Clone20 osteoblast Shn3 3'UTR firefly luciferase, 24 h, query= OC1(c2ccc(OC(F)F)cc2)CSC(=Nc2cccnc2)N1C1CC1 (stereo unspecified) )
stdout: 5400 nM

stdin: API: value(readout= AC50, system= Clone20 osteoblast Shn3 3'UTR firefly luciferase, 24 h, query= COc1cccc(CNc2nc(NCC3CC3)nc3ccsc23)c1 )
stdout: 5860 nM

stdin: API: value(readout= AC50, system= Clone20 osteoblast Shn3 3'UTR firefly luciferase, 24 h, query= CCCCC(=O)NC(c1ccc(C(C)C)cc1)c1ccc2cccnc2c1O (stereo unspecified) )
stdout: 570 nM

stdin: API: value(readout= AC50, system= Clone20 osteoblast Shn3 3'UTR firefly luciferase, 24 h, query= COc1ccc(-c2cc3nc(C)n(N)c(=O)c3s2)cc1 )
stdout: 1130 nM

stdin: API: value(readout= AC50, system= Clone20 osteoblast Shn3 3'UTR firefly luciferase, 24 h, query= CN(CCOc1ccc(Cl)cc1)C(=O)c1cccc(S(=O)(=O)N2CCN(c3ccc(F)cc3)CC2)c1 )
stdout: 1770 nM

stdin: API: value(readout= AC50, system= Clone20 osteoblast Shn3 3'UTR firefly luciferase, 24 h, query= O=[N+]([O-])c1c(Nc2cccc(O)c2)cc(Cl)c2nonc12 )
stdout: 683 nM

stdin: API: value(readout= AC50, system= Clone20 osteoblast Shn3 3'UTR firefly luciferase, 24 h, query= COc1ccc(NS(=O)(=O)c2ccc(C(=O)N3CCCCCC3)cc2)cc1 )
stdout: 4510 nM

stdin: API: value(readout= AC50, system= Clone20 osteoblast Shn3 3'UTR firefly luciferase, 24 h, query= Cc1c(C)c2ccc(OCC(=O)Nc3ccccn3)c(C)c2oc1=O )
stdout: 416 nM

stdin: API: value(readout= AC50, system= Clone20 osteoblast Shn3 3'UTR firefly luciferase, 24 h, query= CCOc1ccc(-n2c(-c3ccccc3)c[n+]3c2CCC3)cc1 )
stdout: 526 nM

stdin: API: value(readout= AC50, system= Clone20 osteoblast Shn3 3'UTR firefly luciferase, 24 h, query= CNc1ccccc1C(C)(C)c1cc(-c2cccc(OC)c2)no1 )
stdout: 1920 nM

stdin: API: value(readout= AC50, system= Clone20 osteoblast Shn3 3'UTR firefly luciferase, 24 h, query= C=CCn1c(C)cc(C(=O)CN2C(=O)c3ccccc3S2(=O)=O)c1C )
stdout: 974 nM
